B1: Far upstream element-binding protein 3, residues 75 to 150; numbered along this chain, Q96I24 (parent)
chain: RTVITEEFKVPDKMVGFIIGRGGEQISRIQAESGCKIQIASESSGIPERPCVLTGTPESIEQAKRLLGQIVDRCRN

variants of: B1; test: abundance fitness (aPCA) (normalised: wild type 0, dead -1); higher = more abundant; growth selection in yeast, the domain comes from the species named; settings: Homo sapiens
measure-name: abundance fitness

Worked examples, 2 variants total:
INSERT INTO assay_data (mutation_annotation, measure_name, result) VALUES
  ('E32S', 'abundance fitness', -0.093),
  ('V3R', 'abundance fitness', -0.085);

Give me abundance fitness for each of these variants, listed below.
1. I19P
2. V3C
3. G23H
4. I70N

1. -0.25
2. -0.081
3. -0.077
4. -0.261

Give me abundance fitness for each of these variants, listed below.
1. G20Y
2. S59C

1. -0.524
2. -0.146

Give me abundance fitness for each of these variants, listed below.
1. D72S
2. C51A
3. A40I
4. A40H
5. I26K
6. D72H
7. G45K
8. E42N

1. -0.035
2. -0.075
3. -0.036
4. -0.032
5. -0.232
6. -0.023
7. -0.093
8. -0.043
